- System: Enterococcus faecalis
- assay_name: Antibacterial activity against Enterococcus faecalis bc11148-2
- Assay type: functional
I'd be grateful if you could share measured MIC for these entries.
One number for each entry, in µg/mL.

compound_structure | tgt | readout | u | meas_value
C=C[C@]12OC(=O)N(CCCCn3cnc(-c4cncnc4)c3)[C@@H]1[C@@H](C)C(=O)[C@H](C)C[C@@](C)(OC)[C@H](O[C@@H]1O[C@H](C)C[C@H](N(C)C)[C@H]1O)[C@@H](C)C(=O)[C@@H](C)C(=O)O[C@@H]2CC | Enterococcus faecalis | MIC | µg/mL | 0.4

Here are 5 molecules. What values of MIC were reported for them?
1. C=C[C@]12OC(=O)N(CCN(C)Cc3cccc(-c4cccnc4)c3)[C@@H]1[C@@H](C)C(=O)[C@H](C)C[C@@](C)(OC)[C@H](O[C@@H]1O[C@H](C)C[C@H](N(C)C)[C@H]1O)[C@@H](C)C(=O)[C@@H](C)C(=O)O[C@@H]2CC
2. C=C[C@]12OC(=O)N(CCCCn3cnc(-c4ccc(N(C)C)nc4)c3)[C@@H]1[C@@H](C)C(=O)[C@H](C)C[C@@](C)(OC)[C@H](O[C@@H]1O[C@H](C)C[C@H](N(C)C)[C@H]1O)[C@@H](C)C(=O)[C@@H](C)C(=O)O[C@@H]2CC
3. C=C[C@]12OC(=O)N(CCCCc3cnc(-c4cccnc4)s3)[C@@H]1[C@@H](C)C(=O)[C@H](C)C[C@@](C)(OC)[C@H](O[C@@H]1O[C@H](C)C[C@H](N(C)C)[C@H]1O)[C@@H](C)C(=O)[C@@H](C)C(=O)O[C@@H]2CC
4. C=C[C@]12OC(=O)N(CCCCn3cnc(-c4ccc(NC)nc4)c3)[C@@H]1[C@@H](C)C(=O)[C@H](C)C[C@@](C)(OC)[C@H](O[C@@H]1O[C@H](C)C[C@H](N(C)C)[C@H]1O)[C@@H](C)C(=O)[C@@H](C)C(=O)O[C@@H]2CC
5. C=C[C@]12OC(=O)N(CCCCc3ccc(-c4cccnc4)s3)[C@@H]1[C@@H](C)C(=O)[C@H](C)C[C@@](C)(OC)[C@H](O[C@@H]1O[C@H](C)C[C@H](N(C)C)[C@H]1O)[C@@H](C)C(=O)[C@@H](C)C(=O)O[C@@H]2CC

Marked response:
1. 0.1
2. 0.78
3. 1.56
4. 0.78
5. 3.13

----------
- Tested on: Haemophilus influenzae
- assay_name: Antibacterial activity against Haemophilus influenzae 49247
- Format: functional
For each of the molecules below, state its MIC.
Give bare numbers, in µg/mL.

Solved entries (count: 3):
compound_structure | MIC [µg/mL]
C=C[C@]12OC(=O)N(CCCCn3cnc(-c4ccc(O)nc4)c3)[C@@H]1[C@@H](C)C(=O)[C@H](C)C[C@@](C)(OC)[C@H](O[C@@H]1O[C@H](C)C[C@H](N(C)C)[C@H]1O)[C@@H](C)C(=O)[C@@H](C)C(=O)O[C@@H]2CC | 6.25
C=C[C@]12OC(=O)N(CCCCn3cnc(-c4ccc(C)nc4)c3)[C@@H]1[C@@H](C)C(=O)[C@H](C)C[C@@](C)(OC)[C@H](O[C@@H]1O[C@H](C)C[C@H](N(C)C)[C@H]1O)[C@@H](C)C(=O)[C@@H](C)C(=O)O[C@@H]2CC | 3.13
C=C[C@]12OC(=O)N(CCN(C)Cc3cnc(-c4cccnc4)s3)[C@@H]1[C@@H](C)C(=O)[C@H](C)C[C@@](C)(OC)[C@H](O[C@@H]1O[C@H](C)C[C@H](N(C)C)[C@H]1O)[C@@H](C)C(=O)[C@@H](C)C(=O)O[C@@H]2CC | 12.5

Memo: C=C[C@]12OC(=O)N(CCCCn3cnc(-c4cncnc4)c3)[C@@H]1[C@@H](C)C(=O)[C@H](C)C[C@@](C)(OC)[C@H](O[C@@H]1O[C@H](C)C[C@H](N(C)C)[C@H]1O)[C@@H](C)C(=O)[C@@H](C)C(=O)O[C@@H]2CC , reported MIC: 3.13
